- SUBJECT_OF_TEST: mGPR65 (Mus musculus, UniProt Q61038)
- Construct: expressed in transfected cells; host or cells: HeLa (ATCC CCL-2), lentiviral transduction, pLX317
- Sequence (Q61038 whole entry): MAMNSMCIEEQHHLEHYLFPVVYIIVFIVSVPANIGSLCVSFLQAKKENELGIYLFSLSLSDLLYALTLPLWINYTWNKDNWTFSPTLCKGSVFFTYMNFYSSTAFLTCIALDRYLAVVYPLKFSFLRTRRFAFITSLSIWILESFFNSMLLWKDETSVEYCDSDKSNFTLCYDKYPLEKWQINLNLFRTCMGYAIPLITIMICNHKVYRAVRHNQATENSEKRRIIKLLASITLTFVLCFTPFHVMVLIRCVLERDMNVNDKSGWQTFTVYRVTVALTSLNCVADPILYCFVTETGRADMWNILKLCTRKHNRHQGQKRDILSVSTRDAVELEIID
- EXPERIMENT_NOTES: cAMP detection in HeLa expression cell line, mGPR65
- Assay type: cell-based
- TEST_PARAMETERS: HeLa; relative to 100uM forskolin (100%) and DMSO (0%); NA = no activity; read-out: mGPR Max Activity %
Bucketed by reported Emax, buckets being bucket A = under 40%, bucket B = from 40% up to 60%, bucket C = 60% and over

COCc1ccc(-c2cc(O)n3ncc(C(=O)Nc4ccc(C)cc4)c3n2)cc1 [BRD2813] : bucket A
CCN1CC(c2cc(O)n3ncc(C(=O)Nc4ccc(Cl)cc4)c3n2)CC1=O (stereo not drawn) [BRD8856] : bucket A
Cc1ccc(NC(=O)c2cnn3c(O)cc(-c4ccc(COC(C)C)cc4)nc23)cc1Cl [BRD5079] : bucket B
CN1N=C(SCc2ccc(Cl)cc2Cl)Sc2c1cnn(C)c2=O [BTB09089, reference compound] : bucket C
CC(C)OCc1ccc(-c2cc(O)n3ncc(C(=O)Nc4ccccc4)c3n2)cc1 [BRD5060] : bucket C
CCS(=O)(=O)c1ccc(NC(=O)c2cnn3c(O)cc(-c4ccc(COC)cc4)nc23)cc1 [BRD7157] : bucket C
CCOCc1ccc(-c2cc(O)n3ncc(C(=O)Nc4ccc(C)cc4)c3n2)cc1 [BRD6745] : bucket B
COc1cc(-c2cc(O)n3ncc(C(=O)Nc4ccc(C)cc4)c3n2)ccc1F [BRD5066] : bucket A
Cc1ccc(NC(=O)c2cnn3c(O)cc(-c4ccc(C(=O)NC(C)C)cc4)nc23)cc1 [BRD5085] : bucket C
Cc1ccc(NC(=O)c2cnn3c(O)cc(-c4ccc(F)c(Cl)c4)nc23)cc1 [BRD5067] : bucket B
Cc1ccc(NC(=O)c2cnn3c(O)cc(-c4ccc(COC(C)C)cc4)nc23)nc1 [BRD5075] : bucket C
Cc1ccc(NC(=O)c2cnn3c(O)cc(-c4ccc(-c5ccccc5C(C)C)cc4)nc23)cc1 [BRD4665] : bucket A
CC(C)OCc1ccc(-c2cc(O)n3ncc(C(=O)Nc4ccccn4)c3n2)cc1 [BRD5074] : bucket C
CCn1cc(Cl)c(-c2cc(O)n3ncc(C(N)=O)c3n2)n1 [BRD8068] : bucket A
Cc1ccc(NC(=O)c2cnn3c(O)cc(-c4cnc(N5CCN(C)CC5)c(Cl)c4)nc23)cc1 [BRD5069] : bucket C
COCc1ccc(-c2cc(O)n3ncc(C(=O)Nc4ccccc4)c3n2)cc1 [BRD9876] : bucket B

* * *

- SUBJECT_OF_TEST: mGPR65 (Mus musculus, UniProt Q61038)
- Construct: expressed in transfected cells; host or cells: HeLa (ATCC CCL-2), lentiviral transduction, pLX317
- EXPERIMENT_NOTES: cAMP detection in HeLa expression cell line, mGPR65
- Format: cell-based
- TEST_PARAMETERS: HeLa, 2nd mGPR column pair; relative to 100uM forskolin (100%) and DMSO (0%); NA = no activity; read-out: mGPR Max Activity %
OBSERVED_PROPERTY: Emax (%)

Cc1cnc(NC(=O)c2cnn3c(O)cc(-c4ccc(COC(C)C)cc4)nc23)nc1 [BRD5076] : 56.3
Cc1ccc(NC(=O)c2cnn3c(O)cc(-c4ccc(COC(C)C)cc4)nc23)cc1F [BRD5078] : 51.5
Cc1ccc(NC(=O)c2cnn3c(O)cc(-c4ccc(N5CCC(=O)CC5)cc4)nc23)cc1 [BRD8536] : 52.9
CNC(=O)c1ccc(-c2cc(O)n3ncc(C(=O)Nc4ccc(C)cc4)c3n2)cc1 [BRD5083] : 106
Cc1ccc(NC(=O)c2cnn3c(O)cc(-c4ccc(N5CCOCC5)nc4)nc23)cc1 [BRD5064] : 33.9
Cc1ccc(NC(=O)c2cnn3c(O)cc(-c4ccc(N5CCOCC5)c(Cl)c4)nc23)cc1 [BRD5062] : 55.1
Cc1ccc(NC(=O)c2cnn3c(O)cc(-c4ccc(N5CCN(C)CC5)nc4)nc23)cc1 [BRD5070] : 34.4
Cc1ccc(NC(=O)c2cnn3c(O)cc(-c4ccc(N5CCN(C)CC5)c(Cl)c4)nc23)cc1 [BRD5068] : 66.5

* * *

- SUBJECT_OF_TEST: hGPR65 (Homo sapiens, UniProt Q8IYL9)
- Construct: expressed in transfected cells; host or cells: HeLa (ATCC CCL-2), lentiviral transduction, pLX317
- Sequence (Q8IYL9 whole entry): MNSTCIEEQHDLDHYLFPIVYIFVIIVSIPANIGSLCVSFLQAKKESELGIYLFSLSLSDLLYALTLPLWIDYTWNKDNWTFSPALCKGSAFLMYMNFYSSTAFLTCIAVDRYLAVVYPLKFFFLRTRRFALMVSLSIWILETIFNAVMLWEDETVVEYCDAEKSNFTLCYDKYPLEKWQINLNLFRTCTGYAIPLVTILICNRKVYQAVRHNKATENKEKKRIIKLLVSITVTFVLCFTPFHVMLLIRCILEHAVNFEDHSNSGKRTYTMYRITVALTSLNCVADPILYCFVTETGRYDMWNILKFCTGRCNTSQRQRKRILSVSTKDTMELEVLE
- EXPERIMENT_NOTES: cAMP detection in HeLa expression cell line, hGPR65
- Assay type: cell-based
- TEST_PARAMETERS: hGPR EC50; pH 7.2, 30 min
EC50 reference
OBSERVED_PROPERTY: EC50 (nM)

Cc1ccc(NC(=O)c2cnn3c(O)cc(-c4ccc(F)c(Cl)c4)nc23)cc1 : 554
Cc1ccc(NC(=O)c2cnn3c(O)cc(-c4ccc(COC(C)C)cc4)nc23)nc1 : 699
Cc1ccc(NC(=O)c2cnn3c(O)cc(-c4ccc(COC(C)C)c(Cl)c4)nc23)cc1 : 618
Cc1ccc(NC(=O)c2cnn3c(O)cc(-c4ccc(COC(C)C)cc4)nc23)cc1Cl : 417
COCc1ccc(-c2cc(O)n3ncc(C(=O)Nc4ccc(C(C)C)cc4)c3n2)cc1 : 2850
COCc1ccc(-c2cc(O)n3ncc(C(=O)Nc4ccc(C)cc4)c3n2)cc1 : 724
Cc1ccc(NC(=O)c2cnn3c(O)cc(-c4ccc(COC(C)C)cc4)nc23)c(F)c1 : 1500
Cc1ccc(NC(=O)c2cnn3c(O)cc(-c4ccc(COC(C)C)cc4)nc23)cc1F : 264

* * *

- SUBJECT_OF_TEST: mGPR65 (Mus musculus, UniProt Q61038)
- Construct: expressed in transfected cells; host or cells: HeLa (ATCC CCL-2), lentiviral transduction, pLX317
- EXPERIMENT_NOTES: cAMP detection in HeLa expression cell line, mGPR65
- Assay type: cell-based
- TEST_PARAMETERS: mGPR EC50 (uM), first pair of columns; pH 7.2, 30 min
OBSERVED_PROPERTY: EC50 (µM)

Cc1ccc(NC(=O)c2cnn3c(O)cc(-c4ccc(COC(C)C)c(Cl)c4)nc23)cc1 : 0.591
Cc1ccc(NC(=O)c2cnn3c(O)cc(-c4ccc(COC(C)C)cc4)nc23)cc1F : 0.477
Cc1ccc(NC(=O)c2cnn3c(O)cc(-c4ccc(COC(C)C)cc4)nc23)cc1Cl : 0.345
Cc1ccc(NC(=O)c2cnn3c(O)cc(-c4ccc(COC(C)C)cc4)nc23)c(F)c1 : 0.432
COCc1ccc(-c2cc(O)n3ncc(C(=O)Nc4ccc(C)cc4)c3n2)cc1 : 0.942
Cc1ccc(NC(=O)c2cnn3c(O)cc(-c4ccc(F)c(Cl)c4)nc23)cc1 : 0.449
Cc1ccc(NC(=O)c2cnn3c(O)cc(-c4ccc(COC(C)C)cc4)nc23)nc1 : 1.04
COCc1ccc(-c2cc(O)n3ncc(C(=O)Nc4ccc(C(C)C)cc4)c3n2)cc1 : 0.618

* * *

- SUBJECT_OF_TEST: hGPR65 (Homo sapiens)
- Construct: expressed in transfected cells; host or cells: HeLa (ATCC CCL-2), lentiviral transduction, pLX317
- EXPERIMENT_NOTES: cAMP detection in HeLa expression cell line, hGPR65
- Assay type: cell-based
- TEST_PARAMETERS: SAR cAMP assay, first EC50/Max pair of hGPR columns; read-out: hGPR EC50
pEC50: −log10 of the molar value.
pEC50 reference
OBSERVED_PROPERTY: pEC50

Cc1ccc(NC(=O)c2cnn3c(O)cc(-c4ccc(Oc5ccccc5)cc4)nc23)cc1 [BRD3067] : 4.96
Cc1ccc(NC(=O)c2cnn3c(O)cc(-c4ccc(-c5ccc(O)cc5)cc4)nc23)cc1 [BRD4475] : 4.98
Cc1ccc(NC(=O)c2cnn3c(O)cc(-c4ccc(-c5ccncc5)cc4)nc23)cc1 [BRD0844] : 5.10
Cc1ccc(NC(=O)c2cnn3c(O)cc(-c4ccc(-c5cccc(C(C)C)c5)cc4)nc23)cc1 [BRD4922] : 5.42
Cc1ccc(NC(=O)c2cnn3c(O)cc(-c4ccc(C5CCCCC5)cc4)nc23)cc1 [BRD5881] : 5.41

* * *

- SUBJECT_OF_TEST: hGPR65 (Homo sapiens)
- Construct: expressed in transfected cells; host or cells: HeLa (ATCC CCL-2), lentiviral transduction, pLX317
- EXPERIMENT_NOTES: cAMP detection in HeLa expression cell line, hGPR65
- Assay type: cell-based
- TEST_PARAMETERS: HeLa, 1st hGPR column pair; relative to 100uM forskolin (100%) and DMSO (0%); NA = no activity; read-out: hGPR Max Activity %
Emax reference
OBSERVED_PROPERTY: Emax

CC(C)OCc1ccc(-c2cc(O)n3ncc(C(=O)Nc4cccnc4)c3n2)cc1 [BRD5077] : 57.8%
Cc1ccc(NC(=O)c2cnn3c(O)cc(-c4ccc(N5CCC(=O)CC5)cc4)nc23)cc1 [BRD8536] : 65.7%
O=C(Nc1ccccc1)c1cnn2c(O)cc(COc3ccccc3)nc12 [BRD5802] : 55.7%
Cc1cnc(NC(=O)c2cnn3c(O)cc(-c4ccc(COC(C)C)cc4)nc23)nc1 [BRD5076] : 72.4%
Cc1ccc(NC(=O)c2cnn3c(O)cc(-c4ccc(COC(C)C)c(Cl)c4)nc23)cc1 [BRD5059] : 76%
Cc1ccc(NC(=O)c2cnn3c(O)cc(-c4ccc(C(N)=O)cc4)nc23)cc1 [BRD5082] : 0%
Cc1cnc(NC(=O)c2cnn3c(O)cc(-c4ccc(COC(C)C)cc4)nc23)cn1 [BRD5073] : 73.6%
Cc1ccc(NC(=O)c2cnn3c(O)cc(-c4cccc(C)c4)nc23)cc1 [BRD1420] : 22.9%
Cc1ccc(NC(=O)c2cnn3c(O)cc(-c4ccc(COC(C)C)cc4)nc23)c(F)c1 [BRD5080] : 80%
CCOC(=O)c1cnn2c(O)cc(C)nc12 [BRD9804] : 5.41%
Cc1ccc(NC(=O)c2cnn3c(O)cc(-c4ccc(COC(C)C)cc4)nc23)cc1Cl [BRD5079] : 81.1%
Cc1ccc(NC(=O)c2cnn3c(O)cc(-c4ccc(C(=O)N(C)C)cc4)nc23)cc1 [BRD5084] : 39.1%
COCc1ccc(-c2cc(O)n3ncc(C(=O)Nc4ccc(C(=O)N(C)C)cc4)c3n2)cc1 [BRD1926] : 11%
Cc1ccc(NC(=O)c2cnn3c(O)cc(-c4ccc(Cl)cc4)nc23)cc1 [BRD2007] : 79.1%
Cc1ccc(NC(=O)c2cnn3c(O)cc(CCc4c(C)noc4C)nc23)cc1 [BRD8568] : 3.77%
COCc1ccc(-c2cc(O)n3ncc(C(=O)Nc4ccc(NC(C)=O)cc4)c3n2)cc1 [BRD9998] : 1.34%
CCOCc1ccc(-c2cc(O)n3ncc(C(=O)Nc4ccccc4)c3n2)cc1 [BRD5063] : 76.1%
Cc1ccc(NC(=O)c2cnn3c(O)cc(-c4ccc5ccccc5c4)nc23)cc1 [BRD7102] : 79.7%
